tested on: Fer (mouse); assay: phosphorylation enrichment, bacterial display (enrichment ratio); higher = better substrate or ligand; peptides without Tyr show the background;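 further: 11-residue human phosphosite peptides and single-mutation variants displayed on the E. coli surface, counted by deep sequencing, each peptide's frequency after selection divided by its frequency in the unselected input library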;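 further: frequency after pTyr selection over input frequency; kinase dosed for 20-30% of maximal phosphorylation in three min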
Label rule, in plain words: phosphorylation enrichment of 0.6 and up is Satisfied, under 0.6 is Not satisfied.

| residue-string | system-under-test | class-assignment |
| --- | --- | --- |
| RSFPSYFTSHV [NEFL_Y442_YF] | Fer (mouse) | Not satisfied |
| TLLAFYMGNFS [GLB1_Y552_P549L] | Fer (mouse) | Not satisfied |
| HNVAIYEGYAL [ACTC1_Y168_P166A] | Fer (mouse) | Satisfied |
| ILGRTYYVNHE [NEDD4_Y627] | Fer (mouse) | Not satisfied |
| TSPKSYPSQKH [CAP2_Y316] | Fer (mouse) | Not satisfied |
| FADTAYNYRHG [PAH_Y166_I164T] | Fer (mouse) | Not satisfied |
| DENWFYTRPAS [RPS19_Y54_A57P] | Fer (mouse) | Satisfied |
| MEIHAYRKLSE [LMNA_Y376_L380S] | Fer (mouse) | Not satisfied |
| GNLLIYTELGK [HGD_Y166_F169L] | Fer (mouse) | Satisfied |
| VGTKRYRAPEV [ACVRL1_Y375_M376R] | Fer (mouse) | Not satisfied |
| RPYRPYIIRGM [LRP5_Y1531] | Fer (mouse) | Not satisfied |
| VLRQVYVDFEG [KMT2B_Y1707_R1705Q] | Fer (mouse) | Not satisfied |
| RFLRGYQQDAY [HLA-A_Y137_R138Q] | Fer (mouse) | Satisfied |
| DGDTRYSTFSE [TKTL1_Y318] | Fer (mouse) | Not satisfied |
| EPAVLYNLKER [MYH7_Y103_D107E] | Fer (mouse) | Not satisfied |
| GRPMDYQVSIT [OTOF_Y254] | Fer (mouse) | Not satisfied |
| CLMILYRLKER [PTPRR_Y249] | Fer (mouse) | Not satisfied |
| REGKIYEFNQV [ZNF665_Y162_H157R_YF] | Fer (mouse) | Satisfied |
| PPTYRYERGSR [INPPL1_Y663] | Fer (mouse) | Not satisfied |
| QLFGAYLRIHA [BSCL2_Y213_YF] | Fer (mouse) | Satisfied |
| IKNSGYISQYL [EIF2AK3_Y585_R588Q] | Fer (mouse) | Not satisfied |
| TFGQVYKGPHV [TNIK_Y40_R43P_YF] | Fer (mouse) | Not satisfied |
| NQELIYEGRRL [TBK1_Y354] | Fer (mouse) | Satisfied |
| RIVRKYKKVRF [F8_Y442_G439V] | Fer (mouse) | Satisfied |
| ETESPYQELQG [TYROBP_Y91] | Fer (mouse) | Satisfied |
| KHCEDYVCSYN [DSC1_Y846] | Fer (mouse) | Not satisfied |
| GHMYAYDWISI [BEST1_Y227_L224M] | Fer (mouse) | Satisfied |
| QNTADYFDLFG [PTPN11_Y62_G60A_YF] | Fer (mouse) | Satisfied |
| FISVGYVDGTQ [HLA-B_Y51_D54G] | Fer (mouse) | Not satisfied |
| VLDSHYPEDEV [C1QBP_Y188_C186S] | Fer (mouse) | Not satisfied |
| TYVVLYDAELT [ERCC4_Y581_R576T] | Fer (mouse) | Not satisfied |
| SFVMVYEGNAR [INSR_Y1038_G1035V] | Fer (mouse) | Not satisfied |
| DNAFQYMLTDR [MYH7_Y164_YF] | Fer (mouse) | Not satisfied |
| ADLTEYLSTHY [UQCRC1_Y219] | Fer (mouse) | Not satisfied |
| CEAMEYLESKQ [BTK_Y511] | Fer (mouse) | Satisfied |
| CCKNRYDKDKP [THAP1_Y14_G9C] | Fer (mouse) | Not satisfied |
| QDLFLYQTHSE [PKHD1_Y255] | Fer (mouse) | Satisfied |
| FFRDGYMPRQF [GSS_Y270_YF] | Fer (mouse) | Not satisfied |
